Assay: qHTS assay to identify small molecule agonists of the hypoxia (HIF-1) signaling pathway (AID 1224846)
Details: HRE-bla ME-180 cells, beta-lactamase ratio, 17 h; series mostly up to 76.8 µM
Inconclusive results are not listed. Activity calls are given as the source filed them. Calls follow the shape of the dose curve; as a rule, active = well fitted activation curve with a large enough effect in the signal ratio in the repeat runs (not every such curve was filed as active); inconclusive = weak or mixed curves; inactive = flat fitted curve, though single readings scatter; the % refers to the signal ratio.
readout_name: outcome

Give its outcome value. Item: CCOP(=O)(O)OCC (tested in a mixture with another compound) inactive

// returns reported outcome for input "COc1ccc(CO)cc1" inactive

What value of outcome has been recorded for this entry: "Brc1ccc(Br)cc1" inactive

###

Assay: Caspase-3/7 induction in CHO-K1 cells by small molecules, qHTS cell viability counter screen (AID 1346979); also: nearly all actives have a fitted effect of over 35% in size
Settings: CellTiter-Fluor fluorescence, 17 h; series mostly up to 92.4 µM
Results filed as inconclusive are left out. The source made the active and inactive calls. Calls follow the shape of the dose curve; as a rule, active = well fitted cell-killing curve with a large enough effect in the repeat runs; inconclusive = weak or mixed curves, or effect the other way; inactive = no such curve, though single readings can be large or run the other way.
Your answer must be one of the following: active, inactive

Solved entries (count: 8):
For this molecule, state the assay outcome: "Clc1ccc(C(Cl)(Cl)Cl)cc1" inactive

I'd appreciate the recorded outcome for "CSc1nc(NC(C)C)nc(NC(C)C)n1" from this test. inactive

Returns: the outcome recorded for "Nc1ccc2ccccc2c1" in this assay. inactive

Hi, sorry to bother you, what did the test record for "CCC/C=N/O" ? inactive

How did this test come out for "NC(=O)CN1CCCC1=O" ? inactive

Could you please tell me the result logged for "CCOP(=S)(OCC)SCSC(C)(C)C" in this assay? inactive

Recorded call for CCC1(c2ccc(N)cc2)CCC(=O)NC1=O (configuration not stated) ? inactive

For "O=C1CCCO1" , which call appears in the assay record? inactive

---
Which result was noted for this molecule in the test: "Cc1ccc([N+](=O)[O-])cc1" inactive

How did this test come out for CC(C)(c1ccc(OCC2CO2)cc1)c1ccc(OCC2CO2)cc1 (configuration not stated) ? inactive

For "COP(=S)(OC)Oc1ccc(S(=O)(=O)N(C)C)cc1" , which call appears in the assay record? inactive

Please let me know the test result on file for "O=[N+]([O-])/N=C1\NCCN1Cc1ccc(Cl)nc1" . inactive

Status in this test for "CCNc1nc(Cl)nc(NC(C)(C)C#N)n1" ? inactive

Please indicate how the test categorized "CN(C)P(=O)(N(C)C)N(C)C" . inactive

Which outcome was assigned to "CN(C)c1nc(=O)n(C2CCCCC2)c(=O)n1C" in this test? inactive

Dear colleague, could you share the recorded outcome for "Nc1ncn[nH]1" when you have a moment? inactive

Recorded test call requested for "CC(C)CON=O" inactive

For this molecule, state the assay outcome: OC(c1ccc(Cl)cc1)(c1cncnc1)c1ccccc1Cl (configuration not stated) active

Which result was noted for this molecule in the test: "CCOP(=S)(OCC)SCn1c(=O)oc2cc(Cl)ccc21" active

For this molecule, state the assay outcome: "COP(=S)(OC)Oc1ccc(Sc2ccc(OP(=S)(OC)OC)cc2)cc1" inactive
